# Tested on: UO-31
# assayProcedure: NCI tumour cell line growth inhibition, 48 h
The source made the active and inactive calls. Rule as the data show it: active = GI50 up to about 1.1 µM and inactive = higher.
Just give me one of these, please: active, inactive

Worked examples follow.
>>> classassignment("O=C(CC(Cl)=C(Cl)Cl)c1ccccc1")
"inactive"
>>> classassignment("O=C1/C(=C\\c2ccc([N+](=O)[O-])cc2)Sc2scc(-c3ccc(O)c(O)c3)[n+]21")
"inactive"
>>> classassignment("O=c1cccccc1NCCCCCCNc1cccccc1=O")
"inactive"
>>> classassignment("Nc1ccc(Oc2ccc(C3(c4ccc(Oc5ccc(N)cc5)cc4)C4CC5CC(C4)CC3C5)cc2)cc1")
"inactive"
>>> classassignment("CCCCCC1C2C(=O)NC(=O)C1C(=O)NC2=O (centres undefined)")
"inactive"

Could you check what this test reported for CC1(C)OC(=O)C2(O1)C(=O)C1CCCCC12 (centres undefined) ? inactive

Tell me the assay call for `CN1CCN(CCCN2c3ccccc3Sc3ccc(C(F)(F)F)cc32)CC1` please. inactive

What did this assay record as the result for `O=C1c2ccccc2C(Br)(Br)c2ccccc21` ? inactive

What is the recorded call for this compound in the test? CC1(C)O[C@H]2OC(CO)C(N=[N+]=[N-])[C@H]2O1 (some centres undefined) inactive

// outcome(item) with item = `CNc1ncnc2c1nnn2C` inactive

So what was the verdict on C=C1[C@@H]([C@@]2(C)C=CC(=O)C(C)(C)[C@@H]2CC(=O)OC)CC[C@@]2(C)[C@H](c3ccoc3)OC(=O)[C@H]3O[C@]132 [ANDIROBIN] in this test? inactive

Recorded call for `COC(=O)c1ccc(/N=N/N(C)COc2ccc(Br)cc2)cc1` ? inactive

Returns: the outcome recorded for CCN(CC)CCC(=O)O[C@H]1CC[C@H](CC(C)[C@H]2CC(=O)C(C)C=C(C)[C@H](OC(=O)CCN(CC)CC)C(OC)C(=O)[C@@H](C)CC(C)/C=C/C=C/C=C(C)C(OC)CC3CC[C@H](C)[C@](O)(O3)C(=O)C(=O)N3CCCCC3C(=O)O2)CC1OC (some centres undefined) in this assay. active

Any idea what this test logged for c1ccc(N2CCN(CCN3CCc4c([nH]c5ccccc45)C3c3cccnc3)CC2)cc1 (centres undefined) ? inactive

Status in this test for CC(=O)NC1C(OCc2ccccc2)OC(CO)C(O)C1OCC(=O)N[C@@H](C)C(=O)N[C@H](CCC(=O)NCCNCCNc1c2ccccc2nc2cccc([N+](=O)[O-])c12)C(N)=O (some centres undefined) ? inactive
